Please go through the items and note down their inhibition of growth at 100 µM.
test system: Streptococcus mutans; experiment: Antibacterial activity against Streptococcus mutans 6715 assessed as growth inhibition at 10^-4 M after 24 hrs; type: functional; conditions: Streptococcus mutans, 6715, 24 h; read-out: GI
Your answer is read as %, so omit the unit and give the number.

**Q:** Quick one: inhibition of growth at 100 µM of OCc1ccc(O)c2ncccc12 ?
**A:** 0

**Q:** Entry to check: COCc1ccc(O)c2ncccc12
**A:** 100

**Q:** Same again, this time with O=Cc1ccc(O)c2ncccc12
**A:** 100

**Q:** And the next one, Oc1ccc(F)c2cccnc12 ?
**A:** 100

**Q:** Okay, and Oc1cccc2cccnc12 ?
**A:** 100

**Q:** Same again, this time with N#CCc1ccc(O)c2ncccc12
**A:** 80

**Q:** // same read-out, input: Oc1ccc(I)c2cccnc12
**A:** 100

**Q:** Same thing, different compound: O=C(O)Cc1ccc(O)c2ncccc12
**A:** 0

----------
Would you mind telling me the reported inhibition of growth at 10 µM of each entry?
tested on: Streptococcus mutans; test: Antibacterial activity against Streptococcus mutans 6715 assessed as growth inhibition at 10^-5 M after 24 hrs; assay type: functional; conditions: Streptococcus mutans, 6715, 24 h; read-out: GI
Supply the numeric figure in %, leaving out any unit text.

**Q:** Recorded inhibition of growth at 10 µM of COCc1ccc(O)c2ncccc12 , please.
**A:** 0

**Q:** Can you check Oc1ccc(I)c2cccnc12 next?
**A:** 100

**Q:** Same question for CCOC(=O)Cc1ccc(O)c2ncccc12 please.
**A:** 100

**Q:** Try the compound CC(=O)c1ccc(O)c2ncccc12
**A:** 100

**Q:** # repeat for Oc1cccc2cccnc12
**A:** 100

**Q:** Record: N#CCc1ccc(O)c2ncccc12
**A:** 0

**Q:** Also check Oc1ccc(F)c2cccnc12
**A:** 80

**Q:** Please give the result for COC(=O)Cc1ccc(O)c2ncccc12 too.
**A:** 60

**Q:** Next compound up: O=Cc1ccc(O)c2ncccc12
**A:** 0

----------
Please provide measured inhibition at 100000 µM for the entries that follow.
system: Streptococcus mutans; assay: Antibacterial activity against Streptococcus mutans 6715 assessed as inhibition of plaque formation in human teeth at 10^-1 M after 48 hrs; assay type: functional; conditions: Streptococcus mutans, 6715, 48 h
# answer = value followed by unit

**Q:** Fill in the blank: the reported inhibition at 100000 µM of Oc1ccc(F)c2cccnc12 is ____.
**A:** 80%

**Q:** Input Oc1ccc(O)c2ncccc12
**A:** 0%

**Q:** One more molecule: OCc1ccc(O)c2ncccc12
**A:** 0%

**Q:** Please give the result for O=Cc1ccc(O)c2ncccc12 too.
**A:** 80%

**Q:** Also CCOC(=O)Cc1ccc(O)c2ncccc12 ?
**A:** 80%

**Q:** Now the molecule N#CCc1ccc(O)c2ncccc12
**A:** 80%

**Q:** // query: COCc1ccc(O)c2ncccc12
**A:** 60%

**Q:** Proceed to O=C(O)Cc1ccc(O)c2ncccc12
**A:** 0%

**Q:** Another molecule: Oc1cccc2cccnc12
**A:** 100%

**Q:** What would you report for COC(=O)Cc1ccc(O)c2ncccc12 ?
**A:** 100%

**Q:** How about this molecule: CC(=O)c1ccc(O)c2ncccc12
**A:** 100%

**Q:** Next molecule: Oc1ccc(I)c2cccnc12
**A:** 100%
